Cited source for all entries: ChEMBL document CHEMBL1201862

Test system: SF-268
Experiment: NCI tumour cell line growth inhibition, 48 h
Activity calls are given as the source filed them. No stated cut-off is given here; in the data, active = GI50 up to about 1.1 µM and inactive = higher.
Items are presented alongside their recorded GI50.
endpoint.name: GI50

{"molecule": "c1ccc(CCNc2ccccn2)nc1", "result": "> 100 µM (inactive)"}
{"molecule": "CC(=O)OCC(=O)O[C@@H]1[C@H]2[C@@H](OC(=O)c3ccccc3)[C@@H](C)C[C@]2(O)[C@H](OC(C)=O)[C@@]2(C)C(OC(C)=O)[C@]1(OC(C)=O)C[C@H]1C(=O)C(C)(C)C[C@@H]12 (some centres undefined)", "result": "> 50 µM (inactive)"}
{"molecule": "COc1ccc2oc(=O)c(-c3cc4c(c(C)n3)c(=O)oc3ccc(OC)cc34)cc2c1", "result": "55.8 µM (inactive)"}
{"molecule": "O=C1Nc2ccc(Br)cc2/C1=N/Nc1ccc([N+](=O)[O-])cc1", "result": "17.5 µM (inactive)"}

###

Test system: PC-3
Assay: NCI tumour cell line growth inhibition, 48 h
Activity calls are given as the source filed them. Rule as the data show it: active = GI50 up to about 1.1 µM and inactive = higher.

{"compound": "[N-]=[N+]=NC1(N=[N+]=[N-])C(=O)NN=C(c2ccccc2)C1=O (stereo not drawn)", "GI50": "> 100 µM (inactive)"}
{"compound": "O=C(O)CNn1c(SCC(=O)O)nnc(/C=C/c2c(O)ccc3ccccc23)c1=O", "GI50": "77.3 µM (inactive)"}
{"compound": "CCSCCCC(=O)O", "GI50": "> 100 µM (inactive)"}

###

Test system: SN12C
Experiment: NCI tumour cell line growth inhibition, 48 h
Activity calls are given as the source filed them. Rule as the data show it: active = GI50 up to about 1.1 µM and inactive = higher.

{"compound": "Nc1nc(Cl)cc(NCC2(CO)CC(O)C2)n1 (stereo unspecified)", "target.under.test": "SN12C", "GI50": "> 100 µM (inactive)"}
{"compound": "CCCC/C=C1\\CCC(CN2CCOCC2)C1=O (stereo unspecified)", "target.under.test": "SN12C", "GI50": "4.57 µM (inactive)"}
{"compound": "CC1=C(N2CC2)C(=O)c2ccccc2C1=O", "target.under.test": "SN12C", "GI50": "0.312 µM (active)"}
{"compound": "CN(CC(=O)Nc1ccccc1C(=O)O)c1ccccc1", "target.under.test": "SN12C", "GI50": "40.6 µM (inactive)"}
{"compound": "COC(=O)Nc1nc2cc(S(=O)(=O)n3nnc4ccccc43)ccc2[nH]1", "target.under.test": "SN12C", "GI50": "> 100 µM (inactive)"}
{"compound": "COC(=O)C1=C(O)C(O)=C(C(=O)OC)C1", "target.under.test": "SN12C", "GI50": "> 100 µM (inactive)"}
{"compound": "O=C1NCC2(CCNCC2)N1", "target.under.test": "SN12C", "GI50": "> 100 µM (inactive)"}
{"compound": "O=C1NCC2(CCNCC2)N1c1ccccc1", "target.under.test": "SN12C", "GI50": "> 100 µM (inactive)"}
{"compound": "CCCCCCn1c(SC)nc(COC(=O)NC)c1COC(=O)NC", "target.under.test": "SN12C", "GI50": "16.7 µM (inactive)"}
{"compound": "CC(C)(C)c1ccc(OCCOc2ccc(C(C)(C)C)cc2N)c(N)c1", "target.under.test": "SN12C", "GI50": "> 100 µM (inactive)"}
{"compound": "O=C(O)c1cc2ccc(Cl)cc2c(O)c1C1=CCCCC1", "target.under.test": "SN12C", "GI50": "46.8 µM (inactive)"}
{"compound": "CCOC(=O)c1ccc2nc(-c3ccc(S(=O)(=O)F)cc3)cc(O)c2c1", "target.under.test": "SN12C", "GI50": "43.9 µM (inactive)"}
{"compound": "Cn1c(N)c(/C=C/C(=O)Oc2ccccc2)c(=O)n(C)c1=O", "target.under.test": "SN12C", "GI50": "45.6 µM (inactive)"}
{"compound": "O=C(O)C(Cl)(c1ccccc1)c1ccccc1", "target.under.test": "SN12C", "GI50": "> 100 µM (inactive)"}
{"compound": "C/C=C1\\C(=O)OC2CCN3CCC(COC(=O)C(C)(O)C(C)C1O)C23 (stereo unspecified)", "target.under.test": "SN12C", "GI50": "> 100 µM (inactive)"}
{"compound": "COc1c2c(c3c(c1C1OC(C)[C@@H](C)O1)CC(C)(C)O3)C(=O)c1ccccc1C2=O (stereo partly specified)", "target.under.test": "SN12C", "GI50": "35.6 µM (inactive)"}

###

Tested on: U-251
Assay: NCI tumour cell line growth inhibition, 48 h
Activity calls are given as the source filed them. Cut-off read from the data, not from the text of the source: active = GI50 up to about 1.1 µM and inactive = higher.
Labels: y (active), n (inactive)

{"compound": "COC(=O)c1c2c(cc3c1CC1(Cc4cc5c(c(C)c4C1)CCC5)C3)CCC2 (centres undefined)", "group": "n"}
{"compound": "COC(=O)/C(C#N)=C1\\NN=NN1CCCc1ccccc1", "group": "n"}
{"compound": "O=CNNC(=O)CSc1nc2ccc(I)cc2c(=O)n1Cc1ccccc1", "group": "n"}
{"compound": "N/C(=N\\Nc1nc2cc([N+](=O)[O-])ccc2o1)c1ccccn1", "group": "y"}
{"compound": "O=C1c2ccccc2-c2c1c(-c1cccc(Br)c1)nc1ccc3ccccc3c21", "group": "n"}
{"compound": "Cc1csc(-n2c(C)nc3cc(Cl)ccc3c2=O)n1", "group": "n"}
{"compound": "Cc1ccc(S(=O)(=O)NC(=O)Nc2ccc(C(=O)O)cc2)cc1", "group": "n"}
{"compound": "CCCCCCCCCCC/C(=N/O)c1ccc(O)c2ncccc12", "group": "n"}
{"compound": "CN(C)CCc1ccc(Cl)cc1Cl", "group": "n"}
{"compound": "O=Cc1ccc2ccocc1-2", "group": "n"}
{"compound": "CCOC(=O)C1=C(C)N(NC(N)=O)C(C)(O)C12CCOC2=O (centres undefined)", "group": "n"}
{"compound": "CC1OC=CC(=O)C1O (centres undefined)", "group": "n"}
{"compound": "COc1ccc2oc(C(=O)O)c3c2c1CCC3CCC(=O)O (centres undefined)", "group": "n"}
{"compound": "CC1=CC[C@@]2(C)CC[C@](O)(C(C)C)C2C(OC(=O)c2ccccc2)C1 (some centres undefined)", "group": "n"}

###

System: M14
Assay: NCI tumour cell line growth inhibition, 48 h
Activity calls are given as the source filed them. Rule as the data show it: active = GI50 up to about 1.1 µM and inactive = higher.
Labels: active, inactive

{"smiles.entry": "CC(C)(C)/N=c1/n(C(C)(C)C)oc(=O)n1-c1ccccc1", "group": "inactive"}
{"smiles.entry": "CC1(C)CCC[C@]2(C)[C@@H]1CC[C@@]13O[C@@H]1C1=C(CO)C(=O)OC1=C[C@@H]23", "group": "inactive"}
{"smiles.entry": "CCCN(CCC)C(=S)N/N=C/c1ccccn1", "group": "active"}
{"smiles.entry": "COC(=O)c1cc2/c(=N/O)c3ccccc3sc2o1", "group": "inactive"}
{"smiles.entry": "O=C1CNNC(Cn2nc(-c3ccccc3)c3ccccc3c2=O)=N1", "group": "inactive"}
{"smiles.entry": "COc1cc2c(cc1OC(=O)c1cc3ccccc3[nH]1)N=C[C@@H]1CCCN1C2=O", "group": "active"}

###

System: SF-295
Assay: NCI tumour cell line growth inhibition, 48 h
Activity calls are given as the source filed them. Rule as the data show it: active = GI50 up to about 1.1 µM and inactive = higher.
endpoint.name: GI50

{"compound": "CCCCCCn1c(SC)nc(COC(=O)NC)c1COC(=O)NC", "result": "20.2 µM (inactive)"}
{"compound": "O=C(O)/C=C/c1ccncc1", "result": "> 100 µM (inactive)"}
{"compound": "CC1=C(N2CC2)C(=O)c2ccccc2C1=O", "result": "0.618 µM (active)"}
{"compound": "Cc1cc(-c2cscn2)c(O)c([N+](=O)[O-])c1", "result": "0.906 µM (active)"}
{"compound": "C/C=C1\\C(=O)OC2CCN3CCC(COC(=O)C(C)(O)C(C)C1O)C23 (centres undefined)", "result": "> 100 µM (inactive)"}
{"compound": "COc1ccccc1NC(=O)C(=O)C(c1cnc2ccc([N+](=O)[O-])cc2n1)[N+](=O)[O-] (centres undefined)", "result": "> 100 µM (inactive)"}
{"compound": "Nc1nc(Cl)cc(NCC2(CO)CC(O)C2)n1 (centres undefined)", "result": "> 100 µM (inactive)"}
{"compound": "CSc1cc(Cl)c(C)cc1S(=O)(=O)NC(=O)NNc1cnc2ccccc2n1", "result": "> 100 µM (inactive)"}
{"compound": "O=C(O)CCSCCCN1C(=O)c2ccccc2C1=O", "result": "> 100 µM (inactive)"}
{"compound": "CCN(CC)CCCNc1nc(=O)[nH]c(C)c1C(=O)Nc1cccc2cc3ccccc3cc12", "result": "> 100 µM (inactive)"}
{"compound": "COC(=O)C(COC(C)=O)NC(=O)/C=C/c1ccc(O)c(OC(C)=O)c1 (centres undefined)", "result": "> 100 µM (inactive)"}
{"compound": "COc1ccc(NC(=O)CC(=O)N2N=C(C)C(/N=N/c3ccc(C(=O)O)cc3)C2=O)cc1 (centres undefined)", "result": "> 100 µM (inactive)"}
{"compound": "CC1(c2cc3c(cc2Br)OCO3)SCCCS1", "result": "49.1 µM (inactive)"}
{"compound": "Cc1c(NC(=S)NN)c(=O)n(-c2ccccc2)n1C", "result": "> 100 µM (inactive)"}
{"compound": "COc1cc2c(cc1OC)C(=O)/C(=C/c1cc(C)c(O)c(C)c1)C2", "result": "< 0.018 µM (active)"}
{"compound": "CC(C)(C)c1ccc(OCCOc2ccc(C(C)(C)C)cc2N)c(N)c1", "result": "> 100 µM (inactive)"}
{"compound": "C#C[C@]1(O)CC[C@H]2[C@@H]3CCC4=C/C(=N\\OCCN(CC)CC)CC[C@]4(C)[C@H]3CC[C@@]21C", "result": "2.16 µM (inactive)"}
{"compound": "CCOC(=O)c1ccc2c(c1)Cc1cc([N+](=O)[O-])ccc1-2", "result": "23.1 µM (inactive)"}
{"compound": "C/C(=N\\NC(=S)N1CCN(C)CC1)c1nc2cccnc2[nH]1", "result": "> 100 µM (inactive)"}
